Reported viability, T/C values for the following molecules.
system: DMS 114 tumor spheroids, viability % test/control; assay: Anticancer human tumor DMS 114 cell line growth inhibition; settings: second compound 3.16 µM; first compound 0.0316 µM; active compounds read low; spheroids with HUVEC and MSC;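 note: luminescence used as a proxy for viable cells; spheroids exposed to compounds for 7 days before read-out; 100% = DMSO vehicle control viability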
Hi! Could you send only the number? It should be in %, unit omitted.

Recorded viability, T/C, per entry:
Molecule: [2H]c1nc(C)nc([2H])c1-c1cc(NC[C@@H](C)c2cccc3c(C(=O)NC)ccnc23)ncn1 + Cn1nnc2c(C(N)=O)ncn2c1=O
Measured parameter: viability, T/C
Numeric value: 108
//
Molecule: Cc1cc(C)c(CNC(=O)c2cc(-c3ccc(CN4CCOCC4)cc3)cc3c2cnn3C2CCCC2)c(=O)[nH]1 + Cn1nnc2c(C(N)=O)ncn2c1=O
Measured parameter: viability, T/C
Numeric value: 110
//
Molecule: COc1ccc([C@@H](O)c2cc(-c3ncnc4cc(N5CCOCC5)ccc34)c(F)cc2Cl)nn1 + Cn1nnc2c(C(N)=O)ncn2c1=O
Measured parameter: viability, T/C
Numeric value: 107
//
Molecule: COc1cc(C)[nH]c(=O)c1CN1CCc2c(Cl)cc(C(OC)C3COC3)c(Cl)c2C1=O (stereo unspecified) + Cn1nnc2c(C(N)=O)ncn2c1=O
Measured parameter: viability, T/C
Numeric value: 109
//
Molecule: CC(C)n1c(=O)n(C)c2cnc3cc(F)c(-c4ccc(OCCCN5CCCCC5)nc4)cc3c21 + Cn1nnc2c(C(N)=O)ncn2c1=O
Measured parameter: viability, T/C
Numeric value: 104

Data request: Which viability, T/C reading was recorded for the molecule CC1COCCN1c1cc(-c2ccnn2C)c2ccnc(-c3ccn[nH]3)c2n1 (stereo unspecified) + Cn1nnc2c(C(N)=O)ncn2c1=O ?
Data returned: 63

====

System: DMS 114 tumor spheroids, viability % test/control
Experiment: Anticancer human tumor DMS 114 cell line growth inhibition; active = viability on the fitted dose curve at most 10% of control; inactive = the rest;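 note: luminescence used as a proxy for viable cells; spheroids exposed to compounds for 7 days before read-out; 100% = DMSO vehicle control viability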
Details: second compound 0.0003 µM; first compound 3.16 µM; spheroids with HUVEC and MSC
Description: Multicellular complex tumor spheroid response to DNA repair inhibitors in combination with DNA-damaging drugs This study explores the anticancer activities of DNA-damaging drugs and inhibitors of DNA damage repair, both as single agents and in combinations. […] Twenty-six patient-derived or established malignant cell lines were evaluated representing sarcoma, melanoma, small cell lung cancer (SCLC), non-small cell lung cancer (NSCLC), as well as bladder, ovarian and pancreatic cancers. […]
Use one of these outcomes when replying: label 1 (active), label 0 (inactive)

Molecule: COc1ccc([C@@H](O)c2cc(-c3ncnc4cc(N5CCOCC5)ccc34)c(F)cc2Cl)nn1 + COc1cc2c(cc1O)CCNC21CSC2c3c(OC(C)=O)c(C)c4c(c3C(COC1=O)N1C(O)C3Cc5cc(C)c(OC)c(O)c5C(C21)N3C)OCO4
Target: DMS 114 tumor spheroids, viability % test/control
Label: label 1

Continue with the next molecule.
Data request: Just curious, what result did COc1cc(C)[nH]c(=O)c1CN1CCc2c(Cl)cc(C(OC)C3COC3)c(Cl)c2C1=O (stereo unspecified) + COc1cc2c(cc1O)CCNC21CSC2c3c(OC(C)=O)c(C)c4c(c3C(COC1=O)N1C(O)C3Cc5cc(C)c(OC)c(O)c5C(C21)N3C)OCO4 get here?
Data returned: label 0

====

tested on: DMS 114 tumor spheroids, viability % test/control; assay: Anticancer human tumor DMS 114 cell line growth inhibition; details: second compound 0.003 µM; first compound 1 µM; spheroids with HUVEC and MSC; active = viability on the fitted dose curve at most 10% of control; inactive = the rest;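 note: luminescence used as a proxy for viable cells; spheroids exposed to compounds for 7 days before read-out; 100% = DMSO vehicle control viability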
Use one of these outcomes when replying: true (1) (active), false (0) (inactive)

As a guide, the following entries are already answered.
Molecule: COc1ccc([C@@H](O)c2cc(-c3ncnc4cc(N5CCOCC5)ccc34)c(F)cc2Cl)nn1 + COc1cc2c(cc1O)CCNC21CSC2c3c(OC(C)=O)c(C)c4c(c3C(COC1=O)N1C(O)C3Cc5cc(C)c(OC)c(O)c5C(C21)N3C)OCO4
Target: DMS 114 tumor spheroids, viability % test/control
Label: true (1)
//
Molecule: [2H]c1nc(C)nc([2H])c1-c1cc(NC[C@@H](C)c2cccc3c(C(=O)NC)ccnc23)ncn1 + COc1cc2c(cc1O)CCNC21CSC2c3c(OC(C)=O)c(C)c4c(c3C(COC1=O)N1C(O)C3Cc5cc(C)c(OC)c(O)c5C(C21)N3C)OCO4
Target: DMS 114 tumor spheroids, viability % test/control
Label: true (1)
//
Molecule: CC(C)n1c(=O)n(C)c2cnc3cc(F)c(-c4ccc(OCCCN5CCCCC5)nc4)cc3c21 + COc1cc2c(cc1O)CCNC21CSC2c3c(OC(C)=O)c(C)c4c(c3C(COC1=O)N1C(O)C3Cc5cc(C)c(OC)c(O)c5C(C21)N3C)OCO4
Target: DMS 114 tumor spheroids, viability % test/control
Label: true (1)

Continue with the next molecule.
Data request: Just curious, what result did [2H]c1nc(C)nc([2H])c1-c1cc(NC[C@@H](C)c2cccc3c(C(=O)NC)ccnc23)ncn1 + CC[C@@]1(O)C(=O)OCc2c1cc1n(c2=O)Cc2cc3c(CN(C)C)c(O)ccc3nc2-1 get here?
Data returned: false (0)
